assay: chemical genetic growth profiling, strain panel (AID 1159580);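 also: tested at 20 µM; growth read once vehicle control cultures reached saturation at 30 °C; 1 = growth at the plate median or of vehicle wells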; details: S. cerevisiae deletion strains, growth OD, locus YPL106C, strain sse1
About 2,000 (36%) of roughly 5,500 compounds were called active. Roughly 18% stayed inconclusive and do not appear here. Rule as the data show it: active = normalized growth mostly below about 0.91 (no sharp cut-off); inconclusive = no clear call, values can overlap the other calls; inactive = mostly above about 0.92. Some of the results follow.
Labels: Y = active, N = inactive

molecule | labelClass
CCOc1ccc(C(=O)c2ccc(O)c(O)c2O)cc1 | Y
CCCCCCCCCCCCCCCCCCOCC(O)CO (stereo unspecified) | N
COc1ccc(C(=O)c2ccccc2)c(O)c1O | N
CC(=O)OCC1=C(C(=O)O)N2C(=O)[C@@H](NC(=O)CCCC(N)C(=O)O)C2SC1 (stereo partly specified) | N
COc1c2occc2c(OC)c2c(=O)cc(C)oc12 | N
CCOc1ccc(C(=O)c2cc(O)c(OC)c(OC)c2O)cc1 | N
CCOc1cccc(C(=O)c2ccc(O)c(O)c2O)c1 | Y
COC(=O)C[C@H]1C(C)(C)[C@@H](O)[C@@H]2CC3=C4C=C(OC)O[C@@H](c5ccoc5)[C@]4(C)CCC3[C@@]1(C)C2=O (stereo partly specified) | N
CN1C(=O)CCS(=O)(=O)C1c1ccc(Cl)cc1 (stereo unspecified) | N
COc1ccc(C(=O)c2ccc(O)cc2)c(O)c1O | N
O=C(NC1CCCCC1)NC1CCCCC1 | N

====

assay: chemical genetic growth profiling, strain panel (AID 1159580);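 also: tested at 20 µM; growth read once vehicle control cultures reached saturation at 30 °C; 1 = growth at the plate median or of vehicle wells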; settings: S. cerevisiae deletion strains, growth OD, locus YCL029C, strain bik1, stronger effect = lower value
Among all 5,500 compounds or so, about 2,000 (36%) were called active. Not shown: some 18% with an inconclusive outcome. Some of the results follow.
Simple rule here: normalized growth less than 1 is condition met, otherwise condition not met.

molecule | labelClass
CC(=O)N[C@@H](Cc1c[nH]c2ccccc12)C(=O)O | condition not met
O=C(O)c1cc([N+](=O)[O-])ccc1NCCCc1ccccc1 | condition met
CC(=O)OC1CCC2(C)C3CC(=O)C4(C)C(CC5OC6(CCC(C)CO6)[C@@H](C)C54)C3CC[C@H]2C1 (stereo not given in full) | condition met
COc1cc(/C=C/C=O)cc(OC)c1OC | condition not met
C#C[C@]1(O)CCC2C3CCC4=Cc5oncc5C[C@]4(C)C3CC[C@@]21C (stereo not given in full) | condition met
CC(=O)OCC(=O)[C@@]1(O)CCC2C3CC[C@@H]4C[C@H](OC(C)=O)CC[C@]4(C)C3C(=O)C[C@@]21C (stereo not given in full) | condition not met

====

assay: chemical genetic growth profiling, strain panel (AID 1159580);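 also: tested at 20 µM; growth read once vehicle control cultures reached saturation at 30 °C; 1 = growth at the plate median or of vehicle wells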; conditions: S. cerevisiae deletion strains, growth OD, locus YLR102C, strain apc9, stronger effect = lower value
The campaign covered roughly 5,500 compounds. About 2,000 (36%) were called active. Roughly 18% stayed inconclusive and do not appear here. This is one part of the list. Where a SMILES comes first, the peptide text is derived from it. Side-chain parts run from the residue outwards. [ ]: non-standard residue; d: D form. The star is where a group is joined. X1 = CCC(C)C(N)C1=NC(C(=O)*)CS1; Orn = NCCC[CH](N)C(=O)O

compound | normalized growth
COc1cc2cc3c4cc(OC)c(OC)cc4cc[n+]3c(C)c2cc1OC | 1.01
COc1ccc2c(c1OC)OC[C@@H](c1ccc(OC)c(OC)c1OC)C2 | 1.02
CC(N)C(O)c1ccc(O)c(O)c1 (centres undefined) | 0.989
CNC(Cc1c[nH]c2ccccc12)C(=O)O (centres undefined) | 0.995
NCCc1c[nH]c2ccccc12 | 0.996
CC(=O)N[C@@H](Cc1c[nH]c2ccccc12)C(=O)O | 1.02
COc1cccc(O)c1O | 0.995
CCC(C)C(N)C1=NC(C(=O)NC(CC(C)C)C(=O)NC(CCC(=O)O)C(=O)NC(C(=O)NCCCCC2NC(=O)C(CC(N)=O)NC(=O)C(CC(=O)O)NC(=O)C(Cc3cnc[nH]3)NC(=O)C(Cc3ccccc3)NC(=O)C(C(C)CC)NC(=O)C(CCCN)NC2=O)C(C)CC)CS1 (stereo not drawn) (cyclo(DNK([Ile-Glu-Leu-X1])[Orn]IFH); configuration not given here) | 1.01
CN(C)CCc1c[nH]c2ccc(CS(=O)(=O)N3CCCC3)cc12 | 0.995
